target: Smoothened (Mus musculus) (UniProt P56726); experiment: Antagonist activity at smoothened expressed in mouse Shh Light2 cells assessed as inhibition of purmorphamine- induced Gli-dependent luciferase gene expression
Sequence (P56726 whole entry, looked up): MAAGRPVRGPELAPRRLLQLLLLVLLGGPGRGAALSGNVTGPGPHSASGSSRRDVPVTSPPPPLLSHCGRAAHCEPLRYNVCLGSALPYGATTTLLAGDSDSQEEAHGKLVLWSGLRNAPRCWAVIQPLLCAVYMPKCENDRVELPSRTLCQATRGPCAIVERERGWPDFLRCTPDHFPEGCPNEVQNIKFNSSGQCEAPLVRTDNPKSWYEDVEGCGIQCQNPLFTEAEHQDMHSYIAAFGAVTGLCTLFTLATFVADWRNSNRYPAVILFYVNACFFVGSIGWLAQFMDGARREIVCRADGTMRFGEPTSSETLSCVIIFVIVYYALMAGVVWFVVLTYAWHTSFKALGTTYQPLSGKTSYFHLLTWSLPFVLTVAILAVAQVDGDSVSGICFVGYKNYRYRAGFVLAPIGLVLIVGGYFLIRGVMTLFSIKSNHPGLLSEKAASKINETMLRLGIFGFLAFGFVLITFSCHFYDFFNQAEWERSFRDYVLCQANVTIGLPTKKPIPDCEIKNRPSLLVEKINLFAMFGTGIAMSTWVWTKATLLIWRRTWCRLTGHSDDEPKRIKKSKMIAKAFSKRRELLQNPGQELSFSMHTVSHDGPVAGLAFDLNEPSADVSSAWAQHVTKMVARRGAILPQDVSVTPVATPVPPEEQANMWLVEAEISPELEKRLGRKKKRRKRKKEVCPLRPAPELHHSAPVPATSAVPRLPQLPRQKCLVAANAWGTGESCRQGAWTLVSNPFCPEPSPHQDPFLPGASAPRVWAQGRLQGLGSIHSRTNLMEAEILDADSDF
REPORTED ENDPOINT: log10 IC50 (log10 of the value in nM)
// stored as log10 of IC50 expressed in nM

// recorded log10 IC50 for C[C@@]12CN(C(=O)Nc3ccnn3-c3ccccc3)CCN1C(=O)N([C@H]1C[C@@H]1c1ccccc1)C2=O : 1.23

// recorded log10 IC50 for O=C(Nc1ccnn1-c1cccc(Cl)c1)N1CCn2c(c(O)n([C@H]3C[C@@H]3c3ccccc3)c2=O)C1 : 0.90

// recorded log10 IC50 for O=C(Nc1cccnc1-c1ccccc1)N1CCn2c(c(O)n([C@H]3C[C@@H]3c3ccccc3)c2=O)C1 : 1.45

// recorded log10 IC50 for C[C@@]12CN(C(=O)Nc3ccccc3-c3ccccc3)CCN1C(=O)N([C@H]1C[C@@H]1c1ccccc1)C2=O : 1.36

// recorded log10 IC50 for O=C(Nc1cccnc1-c1ccsc1)N1CCn2c(c(O)n([C@H]3C[C@@H]3c3ccccc3)c2=O)C1 : 1.95

// recorded log10 IC50 for O=C(Nc1ccnn1-c1cccc(F)c1)N1CCn2c(c(O)n([C@H]3C[C@@H]3c3ccccc3)c2=O)C1 : 0.78

// recorded log10 IC50 for CS(=O)(=O)c1cc(Cl)c(NC(=O)N2CCn3c(c(O)n([C@H]4C[C@@H]4c4ccccc4)c3=O)C2)c(Cl)c1 : 1.61

// recorded log10 IC50 for C[C@]12CN(C(=O)Nc3ccccc3-c3ccccc3)CCN1C(=O)N([C@H]1C[C@@H]1c1ccccc1)C2=O : 3.15
